molecular target: Cytochrome P450 2E1 (Homo sapiens)
Sequence (P05181 whole entry): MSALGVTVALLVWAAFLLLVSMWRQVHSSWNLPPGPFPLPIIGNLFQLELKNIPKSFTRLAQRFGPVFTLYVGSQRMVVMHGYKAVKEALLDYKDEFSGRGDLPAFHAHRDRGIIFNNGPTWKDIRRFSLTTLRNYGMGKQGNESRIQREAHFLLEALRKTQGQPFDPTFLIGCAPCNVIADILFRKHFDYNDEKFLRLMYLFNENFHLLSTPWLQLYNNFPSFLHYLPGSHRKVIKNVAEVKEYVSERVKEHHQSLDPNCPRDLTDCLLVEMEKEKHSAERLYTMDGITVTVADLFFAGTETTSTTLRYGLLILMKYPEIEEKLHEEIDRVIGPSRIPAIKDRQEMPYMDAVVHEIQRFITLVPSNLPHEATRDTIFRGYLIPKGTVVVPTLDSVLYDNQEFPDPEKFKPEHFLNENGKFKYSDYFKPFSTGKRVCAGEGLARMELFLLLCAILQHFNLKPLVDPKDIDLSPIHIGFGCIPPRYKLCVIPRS
quantityMeasured: Kd (µM)
# value in µM; strip the unit string

// Kd lookup, key: O=C(O)CCCCCCCCCn1ccnc1 [Omega-imidazolyl decanoic acid]
9
